These measurements were taken from the supplement of paper PMC12067230.

# Assay protocol: amyloid nucleation score relative to WT ADan (yeast Sup35 reporter selection) (log enrichment difference); higher = more amyloid nucleation
Class class 1: amyloid nucleation score at least -4. Class class 0: amyloid nucleation score below -4.

These solved cases illustrate the format of a correct answer.
- EASNCFAIRH [F-11-*]: class 1
- EASNCFAI [R-9-*]: class 1
- EASNCFAIRHFEN [K-14-*]: class 0
- EASNCFAIRHFENKFA [V-17-*]: class 0
- EASNCFAIRHFE [N-13-*]: class 0

Is reported amyloid nucleation score greater than or equal to -4 here: EASNCFAIRHFENKFAVE [T-19-*]
class 1

Is reported amyloid nucleation score greater than or equal to -4 here: EASNCFAIRHFENK [F-15-*]
class 0

I'd appreciate it if you could say whether EASNCFAIRHFENKFAV [E-18-*] has amyloid nucleation score at least equal to -4.
class 1

Test whether the substance EASNCFAIRHFENKF [A-16-*] records amyloid nucleation score of -4 or higher.
class 0

Threshold query (amyloid nucleation score >= -4) on EASNCFAIRHFENKFAVET [L-20-*]
class 0

Confirm if amyloid nucleation score reported for the substance EASNCFAIRHF [E-12-*] is -4 or above.
class 1

Can EASNCF [A-7-*] be said to have amyloid nucleation score at or above -4?
class 0
